Ref: PubChem BioAssay (NCI)

Test system: SNB-19 CNS
Assay: NCI-60 one-dose screen, 48 h (100 = growth as untreated, 0 = no growth, -100 = all killed)
Conditions: 10 µM unless noted
The panel holds about 83,000 compounds, 20% with a hit somewhere; the sample as a whole holds those more often.
Would you kindly list growth for each of these molecules?
Return type: number; implicit unit %.

## Task Field request: growth | item: O=C1/C(=C/c2cc(F)cc(F)c2)Cc2cc(F)cc(F)c21
## Result 86.8

## Task Record request: growth value, item COC(=O)C(Br)(C(=O)OC)C(Br)C(Br)C(Br)c1ccccc1 (stereo not given)
## Result 98.6

## Task State the recorded growth for this entry: CCCCCCCC/C=C/CCCCCCCC1=NC(C)(C)CN1c1ccccc1
## Result 87.8

## Task Bench note: what growth did O=C(CC(=O)c1cccc(Cl)c1)c1cccc(Cl)c1 show?
## Result 31.3

## Task Entry C=C1C(=O)O[C@H]2[C@H]1CC/C(COC(=O)NCc1[nH]nc3ccccc13)=C\CC[C@@]1(C)O[C@@H]21 has what growth?
## Result 67.8

###

Kindly supply the reported growth values for the records listed here.
Tested on: M14 melanoma
Assay: NCI-60 one-dose screen, 48 h (100 = growth as untreated, 0 = no growth, -100 = all killed)
Details: 10 µM unless noted
About 83,000 compounds went through this panel and 20% of them were active in at least one assay; those are over-represented in the sample as a whole.
Please reply with the bare figure in % and do not write the unit itself.

## Task Given CCCCCCCCCCCC1=NC(C)(C)CN1CC(C)O (stereo unspecified) , state its recorded growth.
## Result -2.07

## Task Data request, read-out growth, for O=C(/C=C/c1ccccc1Br)c1cccc(OCCCCOc2cccc(C(=O)/C=C/c3ccccc3Br)c2)c1
## Result 88

## Task Requested field: growth. Item: COc1cc(CN2CCC(N3CCCC3=O)c3ccccc32)cc(OC)c1OC (stereo unspecified)
## Result 92.9

## Task What does the record list as growth for COc1ccccc1CNCCCN1C(=O)c2ccc3c4c(ccc(c24)C1=O)C(=O)N(CCCNCCCN)C3=O ?
## Result -44.1

## Task Quick check: growth of Clc1ccc(Cl)c(N=Cc2ccc3c(c2)OCO3)c1 ?
## Result 102

## Task Entry CS(=O)(=O)c1ccc(C(=O)N/N=C/c2cccc3ccccc23)cc1 has what growth?
## Result 66.8

###

Tested on: NCI-H522 lung
Assay: NCI-60 one-dose screen, 48 h (100 = growth as untreated, 0 = no growth, -100 = all killed)
Details: 10 µM unless noted
Protocol: Growth inhibition of the NCI-H522 human Non-Small Cell Lung tumor cell line is measured as a screen for anti-cancer activity. Cells are grown in 96 well plates and exposed to the test compound for 48 hours. Compounds are tested at a single concentration, which is 10^-5 M for most compounds. The reported endpoint is percent growth (GI% or GIPRCNT), where numbers from 0 - 100% represent growth inhibition, and numbers from -100% - 0 represent cell death. […]
About 83,000 compounds went through this panel and 20% of them were active in at least one assay; those are over-represented in the sample as a whole.
measureName: growth (%)
Note: unit % is implicit; provide only the numeric part.

## Task Entry O=c1c2cc(Cl)ccc2oc2ccc(OCCCCCN3CCCCC3)cc12 has what growth?
## Result 36.2

## Task Please give the measured growth for this compound: COc1cc(C2CC(c3ccc(Cl)cc3)=NN2C=O)ccc1Oc1ccnc2cc(Cl)ccc12 (stereo unspecified)
## Result 47.2

## Task Please look up its growth: O=C1Nc2ccc(Cl)cc2/C1=C\c1c(-c2ccc(F)cc2)nc2ccccn12
## Result 11.4

## Task Dear colleague, I am looking for the recorded growth of the following compound: CCN(CC)c1ccc(/C=N/NC(=O)c2ccc(S(C)(=O)=O)cc2)c(O)c1
## Result 9.91

## Task Suppose we examine the compound CC(=O)Nc1c(Br)cc2c(c1Br)Cc1cc(Br)ccc1-2 ; what growth value has been reported?
## Result 76

## Task Name the recorded growth for CC(=O)c1ccc(N2C(=O)c3ccc(Oc4ccccc4)cc3C2=O)cc1 .
## Result 93.1

## Task # input compound: COC(=O)C(Br)(C(=O)OC)C(Br)C(Br)C(Br)c1ccccc1 (stereo unspecified) ; wanted: its growth
## Result -84.5

## Task # query: growth of entry CN(C)N1C(=O)c2c(Cl)c(Cl)c(Cl)c(Cl)c2C1=O
## Result 94.2

## Task Entry Nc1ncnc2c1N=C(c1ccc3c(c1)OCO3)CC(c1ccc(Cl)cc1)N2 (stereo unspecified) has what growth?
## Result 84.3

## Task # growth lookup, item N=C(N)c1ccc(NCCNc2ccc(C(=N)N)cc2)cc1
## Result 92.9

## Task Looking for the measured growth of COc1ccc(-c2nc3ccccc3n3cccc23)cc1 , can you help?
## Result 101

###

Give measured growth for each item. Keep answers brief.
Tested on: NCI-H226 lung
Experiment: NCI-60 one-dose screen, 48 h (100 = growth as untreated, 0 = no growth, -100 = all killed)
Details: 10 µM unless noted
The panel holds about 83,000 compounds, 20% with a hit somewhere; the sample as a whole holds those more often. Active and inactive are the calls of the source. Rule for the calls: active = growth percent below 10; inactive = the rest.

## Task Request the reported growth associated with Oc1ccccc1-c1nnc(COc2ccc(Cl)cc2Cl)o1
## Result 66.2% (inactive)

## Task Returns the measured growth for the input molecule. Input: COc1cc(-c2nc(-c3ccc(-c4nc5ccc(F)cc5[nH]4)cc3)no2)cc(OC)c1OC
## Result 29.2% (inactive)

## Task Would you kindly share the measured growth for COc1cc(C2CC(c3ccccc3)=NN2C=O)ccc1Oc1nc2c(c(=O)n(C)c(=O)n2C)n1C (centres undefined) ?
## Result 79% (inactive)

## Task Which growth is reported for this molecule? CC(C)[C@@]12C[C@@H](OC(=O)C3CO3)[C@@](C)(O1)[C@@H]1CC[C@@H](C)[C@H]1[C@@H]2OC(=O)/C=C/c1ccccc1 (some centres undefined)
## Result 68.3% (inactive)

###

Tested on: IGROV1 ovarian
Test: NCI-60 one-dose screen, 48 h (100 = growth as untreated, 0 = no growth, -100 = all killed)
Settings: 10 µM unless noted
About 83,000 compounds went through this panel and 20% of them were active in at least one assay; those are over-represented in the sample as a whole.
measureName: growth (%)
Quick reminder: number only, in %, skip the unit.

## Task Fill in: growth of O=C1/C(=C/c2ccccc2)SC(=Nc2ccccc2)N1Nc1ccccc1 is ___
## Result 22.7

## Task Look up growth: c1ccc(-c2ccc(-c3ccccc3)[nH]2)cc1
## Result 85.8

## Task Given C=CCCCCOc1cccc(/C=C2\N=C3SCCCN3C2=O)c1 , state its recorded growth.
## Result 88.6

## Task For CCN1C(=O)N(CC)C2C1NN=c1s/c(=C\c3ccc(Br)cc3)c(=O)n12 (stereo unspecified) , what is its reported growth?
## Result 13.3

## Task What measured growth goes with O=C1/C(=C/c2cc(F)cc(F)c2)Cc2cc(F)cc(F)c21 ?
## Result 93.2

## Task Quick check: growth of Cc1cc(-c2ccc(N=Nc3c(S(=O)(=O)O)cc4cc(S(=O)(=O)O)cc(O)c4c3O)c(C)c2)ccc1N=Nc1c(S(=O)(=O)O)cc2cc(S(=O)(=O)O)cc(O)c2c1O ?
## Result 80.6

###

System: A549/ATCC NSCLC
Test: NCI-60 one-dose screen, 48 h (100 = growth as untreated, 0 = no growth, -100 = all killed)
Conditions: 10 µM unless noted
This is part of a sample that, as a whole, favours compounds with a hit. Of some 83,000 tested, about 20% had one in any assay.
measureName: growth (%)
A number alone suffices; assume %.

## Task Would you kindly share the measured growth for CCCCCCCC/C=C\CCCCCCCC(=O)OCCCCCC ?
## Result 90.6

## Task If you can, please state the reported growth value of COc1ccc([C@H]2c3[nH]c4ccccc4c3C[C@H]3C(=O)N(CCCCCCC(=O)NO)CC(=O)N23)cc1 .
## Result 60

## Task Find the recorded growth belonging to CS(=O)(=O)c1ccc(C(=O)N/N=C/c2ccc3c(c2)OCO3)cc1 and report it.
## Result 67.7

## Task Using the record for C=C1C(=O)O[C@H]2[C@H]1CC/C(COC(=O)NCc1c[nH]c3ccc(OC)cc13)=C\CC[C@@]1(C)O[C@@H]21 , report its growth.
## Result 29.6

## Task Query: growth; subject: O=c1c2cc(Br)cc(Br)c2nc(-c2ccc(Cl)cc2)n1/N=C\c1ccccc1F
## Result 57.1

###

Test system: SN12C renal
Experiment: NCI-60 one-dose screen, 48 h (100 = growth as untreated, 0 = no growth, -100 = all killed)
Conditions: 10 µM unless noted
Compounds without any hit were thinned out: in the full panel of roughly 83,000, 20% have a hit.
What growth was measured for each of the following?
Write down the numeric answer in % and omit the unit.

## Task So what does the record say about growth for O=C(c1ccccc1)C1OC1C(=O)c1ccccc1 (centres undefined) ?
## Result 28.2

## Task For the molecule C=C(C)[C@@H]1CC[C@]2(C(=O)NS(=O)(=O)c3ccccc3)CC[C@]3(C)[C@H](CC[C@@H]4[C@@]5(C)CC[C@H](OC(=O)NS(=O)(=O)c6ccccc6)C(C)(C)[C@@H]5CC[C@]43C)[C@@H]12 , what growth is on record?
## Result 13

## Task Query (molecule): C=CCN1C(=O)/C(=c2\sc3n(c2=O)C2C(NN=3)N(CC)C(=O)N2CC)c2ccccc21 (centres undefined) ; field requested: growth
## Result 35.8

## Task Fill in: growth of C/C(=N\Nc1ccc([N+](=O)[O-])cn1)c1ccc(N)cc1 is ___
## Result 94.8
